- TEST_SYSTEM: HLA-C*03:03
- EXPERIMENTAL_PROTOCOL: IEDB peptide-MHC binding, purified MHC/direct/fluorescence; filed as Kd, often an IC50 or EC50 that approximates it; bounds were set here for any values at or beyond the usual limits of such assays
- CONDITION: source organism: Salmonella enterica subsp. enterica serovar Typhi str. CT18
QUANTITY_NAME: Kd

Kd for `WTFTPTTPL` ?
≤ 1 nM

* * *

- TEST_SYSTEM: HLA-A*11:01
- EXPERIMENTAL_PROTOCOL: IEDB peptide-MHC binding, purified MHC/direct/fluorescence; filed as Kd, often an IC50 or EC50 that approximates it; bounds were set here for any values at or beyond the usual limits of such assays
- CONDITION: source organism: Giardia intestinalis
QUANTITY_NAME: Kd (µM)
Report as a plain number; the unit µM is understood.

Kd for `INTLESMMK` ?
12

Origin of values: the Immune Epitope Database (IEDB)
